Below is a list of entries, each paired with its recorded HLM QH value.
experiment: Metabolic (microsomal) stability assay; format: in vitro ADME; conditions: human liver microsomes 1 mg/mL, 1 μM compound, 37° C.; predicted clearance as percent of liver blood flow

Worked set:
1. C=C(F)C(=O)N1[C@@H](C)CN(c2cc(O[C@@H](C)[C@@H]3CCCN3C)nc(-c3noc4c3CCC[C@@]43CCCc4sc(N)c(C#N)c43)n2)C[C@@H]1C [Ib-5]    <24%
2. C=C(F)C(=O)N1[C@@H](C)CN(c2cc(O[C@@H](C)[C@@H]3CCCN3C)nc(-c3onc4c3CCC[C@@]43CCCc4sc(N)c(C#N)c43)n2)C[C@@H]1C [Ia-1]    <24%
3. C=CC(=O)N1[C@@H](C)CN(c2cc(O[C@@H](C)[C@@H]3CCCN3C)nc(-c3onc4c3CCC[C@@]43CCCc4sc(N)c(C#N)c43)n2)C[C@@H]1C [Ia-2]    <24%
4. C=CC(=O)N1[C@@H](C)CN(c2cc(-c3onc4c3CCC[C@@]43CCCc4sc(N)c(C#N)c43)nc(O[C@@H](C)[C@@H]3CCCN3C)n2)C[C@@H]1C [Ia-4]    28%
5. COC/C=C/C(=O)N1[C@@H](C)CN(c2cc(-c3noc4c3CCC[C@@]43CCCc4sc(N)c(C#N)c43)nc(O[C@@H](C)[C@@H]3CCCN3C)n2)C[C@@H]1C [Ib-9]    76%
6. C=CC(=O)N1[C@@H](C)CN(c2cc(-c3noc4c3CCC[C@@]43CCCc4sc(N)c(C#N)c43)nc(O[C@@H](C)[C@@H]3CCCN3C)n2)C[C@@H]1C [Ib-4]    45%

// below: HLM QH requested for another compound
Tell me measured HLM QH for C=CC(=O)N1CCN(c2cc(O[C@@H](C)[C@@H]3CCCN3C)nc(-c3noc4c3CCC[C@@]43CCCc4sc(N)c(C#N)c43)n2)CC12CC2 [Ib-2] please.
<24%

----------
target: CYP3A4 (Homo sapiens, UniProt P08684); construct: assayed in human liver microsomes (0.02 mg/mL) with midazolam (15 μM) as a substrate; from tissue; host or cells: human liver microsomes; assay: Mechanism based inhibition of CYP3A4 assay (MBI 3A4); type: in vitro ADME; settings: human liver microsomes, 25 uM compound; hydroxy-midazolam formation after 30 min preincubation relative to 0 min
Sequence (P08684 whole entry): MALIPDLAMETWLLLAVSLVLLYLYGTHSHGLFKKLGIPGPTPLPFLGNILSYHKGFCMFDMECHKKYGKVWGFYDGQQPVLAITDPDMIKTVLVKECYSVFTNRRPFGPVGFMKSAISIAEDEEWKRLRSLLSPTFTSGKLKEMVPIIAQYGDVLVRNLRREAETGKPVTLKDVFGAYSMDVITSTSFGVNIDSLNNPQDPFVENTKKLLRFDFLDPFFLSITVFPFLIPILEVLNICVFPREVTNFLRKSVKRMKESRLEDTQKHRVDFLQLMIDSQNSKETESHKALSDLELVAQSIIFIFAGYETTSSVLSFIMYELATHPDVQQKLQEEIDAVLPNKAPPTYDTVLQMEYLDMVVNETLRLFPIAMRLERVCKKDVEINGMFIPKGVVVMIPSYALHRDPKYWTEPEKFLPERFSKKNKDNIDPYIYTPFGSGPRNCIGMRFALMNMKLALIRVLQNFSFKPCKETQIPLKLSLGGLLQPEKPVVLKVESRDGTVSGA
experimental-readout: MBI 3A4
Write the quantity with the unit trailing the number.

1) COC/C=C/C(=O)N1[C@@H](C)CN(c2cc(-c3noc4c3CCC[C@@]43CCCc4sc(N)c(C#N)c43)nc(O[C@@H](C)[C@@H]3CCCN3C)n2)C[C@@H]1C    68%
2) C[C@H](Oc1nc(-c2noc3c2CCC[C@@]32CCCc3sc(N)c(C#N)c32)cc(N2C[C@H](C)N(C(=O)/C=C/CF)[C@@H](C)C2)n1)[C@@H]1CCCN1C    62%
3) C=CC(=O)N1[C@@H](C)CN(c2cc(-c3noc4c3CCC[C@@]43CCCc4sc(N)c(C#N)c43)nc(O[C@@H](C)[C@@H]3CCCN3C)n2)C[C@@H]1C    78%

// below: MBI 3A4 requested for another compound
Tell me measured MBI 3A4 for `C=C(F)C(=O)N1[C@@H](C)CN(c2cc(-c3noc4c3CCC[C@@]43CCCc4sc(N)c(C#N)c43)nc(O[C@@H](C)[C@@H]3CCCN3C)n2)C[C@@H]1C` please.
64%

----------
test: Solubility measurement (DMSO solution precipitation method); type: physicochemical; conditions: aqueous buffer, kinetic from dmso stock; McIlvaine buffer pH 6.8, 24 h, ambient temperature; read-out: Solubility pH 6.8
Hi, to clarify the labels: condition met covers solubility at 24 h from 80 µg/mL upward, condition not met covers anything below 80 µg/mL.

These solved cases illustrate the format of a correct answer.
1. C[C@H](Oc1nc(-c2noc3c2CCC[C@@]32CCCc3sc(N)c(C#N)c32)cc(N2C[C@H](C)N(C(=O)/C=C/CF)[C@@H](C)C2)n1)[C@@H]1CCCN1C    condition met
2. C=C(F)C(=O)N1[C@@H](C)CN(c2cc(O[C@@H](C)[C@@H]3CCCN3C)nc(-c3noc4c3CCC[C@@]43CCCc4sc(N)c(C#N)c43)n2)C[C@@H]1C    condition not met
3. C=CC(=O)N1[C@@H](C)CN(c2cc(-c3onc4c3CCC[C@@]43CCCc4sc(N)c(C#N)c43)nc(O[C@@H](C)[C@@H]3CCCN3C)n2)C[C@@H]1C    condition met
4. C=C(F)C(=O)N1[C@@H](C)CN(c2cc(-c3noc4c3CCC[C@@]43CCCc4sc(N)c(C#N)c43)nc(O[C@@H](C)[C@@H]3CCCN3C)n2)C[C@@H]1C    condition not met
5. C[C@H](Oc1nc(-c2noc3c2CCC[C@@]32CCCc3sc(N)c(C#N)c32)cc(N2C[C@H](C)N(C(=O)/C=C/c3cccnc3)[C@@H](C)C2)n1)[C@@H]1CCCN1C    condition not met
6. C=CC(=O)N1CCN(c2cc(O[C@@H](C)[C@@H]3CCCN3C)nc(-c3noc4c3CCC[C@@]43CCCc4sc(N)c(C#N)c43)n2)CC12CC2    condition not met

I'd appreciate it if you could say whether `C=CC(=O)N1[C@@H](C)CN(c2cc(O[C@@H](C)[C@@H]3CCCN3C)nc(-c3onc4c3CCC[C@@]43CCCc4sc(N)c(C#N)c43)n2)C[C@@H]1C` has solubility at 24 h at least equal to 80 µg/mL.
condition met

I'd appreciate it if you could say whether `COC/C=C/C(=O)N1[C@@H](C)CN(c2cc(-c3noc4c3CCC[C@@]43CCCc4sc(N)c(C#N)c43)nc(O[C@@H](C)[C@@H]3CCCN3C)n2)C[C@@H]1C` has solubility at 24 h at least equal to 80 µg/mL.
condition met

I'd appreciate it if you could say whether `C=C(F)C(=O)N1[C@@H](C)CN(c2cc(-c3onc4c3CCC[C@@]43CCCc4sc(N)c(C#N)c43)nc(O[C@@H](C)[C@@H]3CCCN3C)n2)C[C@@H]1C` has solubility at 24 h at least equal to 80 µg/mL.
condition not met

----------
assay: Solubility measurement (DMSO solution precipitation method); assay type: physicochemical; settings: aqueous buffer, kinetic from dmso stock; McIlvaine buffer pH 4.5, 24 h, ambient temperature; read-out: Solubility pH 4.5
experimental-readout: solubility at 24 h

Worked set:
1. C[C@H](Oc1nc(-c2noc3c2CCC[C@@]32CCCc3sc(N)c(C#N)c32)cc(N2C[C@H](C)N(C(=O)/C=C/CF)[C@@H](C)C2)n1)[C@@H]1CCCN1C [Ib-7]    > 139 µg/mL
2. C=CC(=O)N1[C@@H](C)CN(c2cc(O[C@@H](C)[C@@H]3CCCN3C)nc(-c3onc4c3CCC[C@@]43CCCc4sc(N)c(C#N)c43)n2)C[C@@H]1C [Ia-2]    > 156 µg/mL
3. C=CC(=O)N1[C@@H](C)CN(c2cc(-c3noc4c3CCC[C@@]43CCCc4sc(N)c(C#N)c43)nc(O[C@@H](C)[C@@H]3CCCN3C)n2)C[C@@H]1C [Ib-4]    > 140 µg/mL

// below: solubility at 24 h requested for another compound
Tell me measured solubility at 24 h for C=CC(=O)N1[C@@H](C)CN(c2cc(-c3onc4c3CCC[C@@]43CCCc4sc(N)c(C#N)c43)nc(O[C@@H](C)[C@@H]3CCCN3C)n2)C[C@@H]1C [Ia-4] please.
> 163 µg/mL

----------
target: protein-protein interaction between SOS1 and KRAS G12C (Homo sapiens, UniProt P01116, C118S/C51S/C80L/G12C); construct: His6 (N); SOS1: in-house or Viva Biotech Ltd; host or cells: E. coli (KRAS); test: KRAS::SOS1 AlphaScreen Binding Assay; details: Table 20, compounds (I); 7.5 nM KRAS G12C, 10 μM GDP, 5 nM GST-SOS1
Sequence (P01116 1-169 isoform P01116-2 G12C/C51S/C80L/C118S): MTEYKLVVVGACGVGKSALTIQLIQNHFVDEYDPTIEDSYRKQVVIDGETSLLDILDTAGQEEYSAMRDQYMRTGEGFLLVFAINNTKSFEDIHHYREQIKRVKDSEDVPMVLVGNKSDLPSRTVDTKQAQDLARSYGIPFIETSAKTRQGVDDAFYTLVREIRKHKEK
experimental-readout: pIC50
In textbook form, pIC50 equals minus log to base ten of the concentration in mol/L.

Worked set:
1. C[C@H](Oc1cc(N2C[C@H](C)N(C(=O)/C=C/CF)[C@@H](C)C2)nc(-c2noc3c2CCC[C@@]32CCCc3sc(N)c(C#N)c32)n1)[C@@H]1CCCN1C    8.77
2. C[C@H](Oc1nc(-c2noc3c2CCC[C@@]32CCCc3sc(N)c(C#N)c32)cc(N2C[C@H](C)N(C(=O)/C=C/c3cccnc3)[C@@H](C)C2)n1)[C@@H]1CCCN1C    8.49
3. C=CC(=O)N1[C@@H](C)CN(c2cc(-c3onc4c3CCC[C@@]43CCCc4sc(N)c(C#N)c43)nc(O[C@@H](C)[C@@H]3CCCN3C)n2)C[C@@H]1C    8.80
4. C=C(F)C(=O)N1[C@@H](C)CN(c2cc(-c3noc4c3CCC[C@@]43CCCc4sc(N)c(C#N)c43)nc(O[C@@H](C)[C@@H]3CCCN3C)n2)C[C@@H]1C    8.68
5. C=C(F)C(=O)N1[C@@H](C)CN(c2cc(-c3onc4c3CCC[C@@]43CCCc4sc(N)c(C#N)c43)nc(O[C@@H](C)[C@@H]3CCCN3C)n2)C[C@@H]1C    8.40
6. COC/C=C/C(=O)N1[C@@H](C)CN(c2cc(-c3noc4c3CCC[C@@]43CCCc4sc(N)c(C#N)c43)nc(O[C@@H](C)[C@@H]3CCCN3C)n2)C[C@@H]1C    8.21
7. C=C(F)C(=O)N1[C@@H](C)CN(c2cc(O[C@@H](C)[C@@H]3CCCN3C)nc(-c3onc4c3CCC[C@@]43CCCc4sc(N)c(C#N)c43)n2)C[C@@H]1C    8.80
8. C=CC(=O)N1[C@@H](C)CN(c2cc(O[C@@H](C)[C@@H]3CCCN3C)nc(-c3noc4c3CCC[C@@]43CCCc4sc(N)c(C#N)c43)n2)C[C@@H]1C    8.82

// below: pIC50 requested for another molecule
Tell me measured pIC50 for `C=CC(=O)N1CCN(c2cc(O[C@@H](C)[C@@H]3CCCN3C)nc(-c3noc4c3CCC[C@@]43CCCc4sc(N)c(C#N)c43)n2)CC12CC2` please.
8.89
